# Test system: HIV-1 containing A62V/V75I/F77L/F116Y/Q151M
# experiment: microbe, parasite or virus in culture
# Assay type: cell-based
# experimentalContext: A62V/V75I/F77L/F116Y/Q151M
Recorded FI90 (ratio of EC90 against mutant virus:EC90 against wild-type xxLAI) by entry
readoutName: FI90 (ratio of EC90 against mutant virus:EC90 against wild-type xxLAI)

>  <molecule>
Cc1cn([C@H]2C=C[C@@H](CO)O2)c(=O)[nH]c1=O [Compound D4T, 2′,3′-dideoxy-2′,3′-didehydrothymidine]

>  <number>
11

$$$$
>  <molecule>
OC[C@@H]1CC[C@H](n2cnc3c(O)ncnc32)O1 [ddI, 2′,3′-dideoxyinosine]

>  <number>
1.5

$$$$
>  <molecule>
Nc1ccn([C@@H]2CS[C@H](CO)O2)c(=O)n1 [Compound 3TC]

>  <number>
0.9

$$$$

----------
Recorded FI50 (ratio of EC50 against mutant virus:EC50 against wild-type xxLAI) by entry
# Test system: HIV-1 containing 4xAZT (D67N/K70R/T215Y/K219Q)
# experiment: microbe, parasite or virus in culture
# Format: cell-based
# experimentalContext: 4xAZT (D67N/K70R/T215Y/K219Q)
Where a name gives a salt, the structure may show the parent alone.
readoutName: FI50 (ratio of EC50 against mutant virus:EC50 against wild-type xxLAI)

>  <molecule>
Nc1nc(=O)n([C@@H]2CS[C@H](CO)O2)cc1F (relative stereo) [(−)FTC]

>  <number>
2

$$$$
>  <molecule>
OC[C@@H]1CC[C@H](n2cnc3c(O)ncnc32)O1 [ddI, 2′,3′-dideoxyinosine]

>  <number>
3.1

$$$$
>  <molecule>
N#CC[C@H](C1CCCC1)n1cc(-c2ncnc3[nH]ccc23)cn1 [Jakafi, Ruxolitinib]

>  <number>
0.3

$$$$
>  <molecule>
O=C1Nc2ccc(Cl)cc2[C@@](C#CC2CC2)(C(F)(F)F)O1 [EFV, efavirenz]

>  <number>
3.1

$$$$
>  <molecule>
Nc1ccn([C@@H]2CS[C@H](CO)O2)c(=O)n1 [Compound 3TC]

>  <number>
0.9

$$$$
>  <molecule>
CC(C)OC(=O)OCOP(=O)(CO[C@H](C)Cn1cnc2c(N)ncnc21)OCOC(=O)OC(C)C [TDF, Tenofovir disoproxil fumarate]

>  <number>
1.3

$$$$

----------
# Test system: HIV-1 containing L74V
# experiment: microbe, parasite or virus in culture
# Type: cell-based
# experimentalContext: Human immunodeficiency virus 1, Lymphocyte
Where a name gives a salt, the structure may show the parent alone.
TRUE if EC90 is below 3 µM. FALSE if not; exact matches included in FALSE.

>  <molecule>
Nc1ccn([C@@H]2CS[C@H](CO)O2)c(=O)n1

>  <cat>
TRUE

$$$$
>  <molecule>
CC(C)OC(=O)OCOP(=O)(CO[C@H](C)Cn1cnc2c(N)ncnc21)OCOC(=O)OC(C)C [TDF, Tenofovir disoproxil fumarate]

>  <cat>
TRUE

$$$$
>  <molecule>
N#CC[C@H](C1CCCC1)n1cc(-c2ncnc3[nH]ccc23)cn1

>  <cat>
FALSE

$$$$
>  <molecule>
Nc1nc(=O)n([C@@H]2CS[C@H](CO)O2)cc1F (relative stereo) [(−)FTC]

>  <cat>
TRUE

$$$$
>  <molecule>
Cc1cn([C@H]2C=C[C@@H](CO)O2)c(=O)[nH]c1=O [Compound D4T, 2′,3′-dideoxy-2′,3′-didehydrothymidine]

>  <cat>
FALSE

$$$$
>  <molecule>
Cc1cn([C@H]2C[C@H](N=[N+]=[N-])[C@@H](CO)O2)c(=O)[nH]c1=O

>  <cat>
TRUE

$$$$
>  <molecule>
OC[C@@H]1CC[C@H](n2cnc3c(O)ncnc32)O1

>  <cat>
FALSE

$$$$
>  <molecule>
C[C@@H]1CCN(C(=O)CC#N)C[C@@H]1N(C)c1ncnc2[nH]ccc12

>  <cat>
FALSE

$$$$

----------
# Tested on: HIV-1 containing A62V/V75I/F77L/F116Y/Q151M
# experiment: microbe, parasite or virus in culture
# Format: cell-based
# experimentalContext: Human immunodeficiency virus 1, Lymphocyte
Structures can show the parent of a compound that is named as a salt.
Recorded log10 EC90 by entry
readoutName: log10 EC90 (log10 of the value in µM)

>  <molecule>
Nc1nc(=O)n([C@@H]2CS[C@H](CO)O2)cc1F (relative stereo) [(−)FTC]

>  <log10 EC90>
0.32

$$$$
>  <molecule>
CC(C)OC(=O)OCOP(=O)(CO[C@H](C)Cn1cnc2c(N)ncnc21)OCOC(=O)OC(C)C [TDF, Tenofovir disoproxil fumarate]

>  <log10 EC90>
0.56

$$$$
>  <molecule>
OC[C@@H]1CC[C@H](n2cnc3c(O)ncnc32)O1 [ddI, 2′,3′-dideoxyinosine]

>  <log10 EC90>
1.92

$$$$
>  <molecule>
C[C@@H]1CCN(C(=O)CC#N)C[C@@H]1N(C)c1ncnc2[nH]ccc12 [Tofacitinib]

>  <log10 EC90>
0.95

$$$$
>  <molecule>
Cc1cn([C@H]2C=C[C@@H](CO)O2)c(=O)[nH]c1=O [Compound D4T, 2′,3′-dideoxy-2′,3′-didehydrothymidine]

>  <log10 EC90>
1.85

$$$$
>  <molecule>
N#CC[C@H](C1CCCC1)n1cc(-c2ncnc3[nH]ccc23)cn1 [Jakafi, Ruxolitinib]

>  <log10 EC90>
0.18

$$$$
>  <molecule>
O=C1Nc2ccc(Cl)cc2[C@@](C#CC2CC2)(C(F)(F)F)O1 [EFV, efavirenz]

>  <log10 EC90>
-0.36

$$$$
>  <molecule>
Cc1cn([C@H]2C[C@H](N=[N+]=[N-])[C@@H](CO)O2)c(=O)[nH]c1=O [AZT, 3′-azido-3′-deoxythymidine]

>  <log10 EC90>
1.61

$$$$
>  <molecule>
Nc1ccn([C@@H]2CS[C@H](CO)O2)c(=O)n1 [Compound 3TC]

>  <log10 EC90>
0.43

$$$$

----------
# Test system: HIV-1BaL
# experiment: microbe, parasite or virus in culture
# experimentalContext: Human immunodeficiency virus 1, Macrophage, in Homo sapiens, read-out: Anti-HIV-1 EC50 in acutely infected MΦ
pEC50: −log10 of the molar value.
readoutName: pEC50

>  <moleculeSmiles>
Cc1cn([C@H]2C[C@H](N=[N+]=[N-])[C@@H](CO)O2)c(=O)[nH]c1=O

>  <readoutName>
pEC50

>  <number>
8.00

$$$$
>  <moleculeSmiles>
N#CC[C@H](C1CCCC1)n1cc(-c2ncnc3[nH]ccc23)cn1

>  <readoutName>
pEC50

>  <number>
6.52

$$$$

----------
Recorded FI90 (ratio of EC90 against mutant virus:EC90 against wild-type xxLAI) by entry
# Test system: HIV-1 containing 4xAZT (D67N/K70R/T215Y/K219Q)
# experiment: microbe, parasite or virus in culture
# Format: cell-based
# experimentalContext: 4xAZT (D67N/K70R/T215Y/K219Q)
Counter-ions that a name gives are not always drawn.
readoutName: FI90 (ratio of EC90 against mutant virus:EC90 against wild-type xxLAI)

>  <compound>
Nc1ccn([C@@H]2CS[C@H](CO)O2)c(=O)n1 [Compound 3TC]

>  <studyTarget>
HIV-1 containing 4xAZT (D67N/K70R/T215Y/K219Q)

>  <number>
1.1

$$$$
>  <compound>
Cc1cn([C@H]2C=C[C@@H](CO)O2)c(=O)[nH]c1=O [Compound D4T, 2′,3′-dideoxy-2′,3′-didehydrothymidine]

>  <studyTarget>
HIV-1 containing 4xAZT (D67N/K70R/T215Y/K219Q)

>  <number>
8.3

$$$$
>  <compound>
O=C1Nc2ccc(Cl)cc2[C@@](C#CC2CC2)(C(F)(F)F)O1 [EFV, efavirenz]

>  <studyTarget>
HIV-1 containing 4xAZT (D67N/K70R/T215Y/K219Q)

>  <number>
1

$$$$
>  <compound>
CC(C)OC(=O)OCOP(=O)(CO[C@H](C)Cn1cnc2c(N)ncnc21)OCOC(=O)OC(C)C [TDF, Tenofovir disoproxil fumarate]

>  <studyTarget>
HIV-1 containing 4xAZT (D67N/K70R/T215Y/K219Q)

>  <number>
1.3

$$$$
>  <compound>
Nc1nc(=O)n([C@@H]2CS[C@H](CO)O2)cc1F (relative stereo) [(−)FTC]

>  <studyTarget>
HIV-1 containing 4xAZT (D67N/K70R/T215Y/K219Q)

>  <number>
1.4

$$$$
>  <compound>
N#CC[C@H](C1CCCC1)n1cc(-c2ncnc3[nH]ccc23)cn1 [Jakafi, Ruxolitinib]

>  <studyTarget>
HIV-1 containing 4xAZT (D67N/K70R/T215Y/K219Q)

>  <number>
0.4

$$$$
>  <compound>
OC[C@@H]1CC[C@H](n2cnc3c(O)ncnc32)O1 [ddI, 2′,3′-dideoxyinosine]

>  <studyTarget>
HIV-1 containing 4xAZT (D67N/K70R/T215Y/K219Q)

>  <number>
1.4

$$$$
